The reported measurements were obtained from patent US20140140926A1.

Target: soluble hSIRP-alpha (human) (UniProt P78324)
Assay: inhibition of soluble hSIRP-alpha binding to polypeptide beads by soluble peptide
Endpoint label: Ki

IN: # query: Ki of entry EVTELTREGE (synthesized without attachment of biotin) [FG-hairpin (10-aa, …)]
OUT: 100 to 200 nM
